Hey, just so you know, these numbers are from the RNAGym collection of RNA variant scans (doi:10.7554/elife.90254).

B1: OR4K15 (parent)
chain: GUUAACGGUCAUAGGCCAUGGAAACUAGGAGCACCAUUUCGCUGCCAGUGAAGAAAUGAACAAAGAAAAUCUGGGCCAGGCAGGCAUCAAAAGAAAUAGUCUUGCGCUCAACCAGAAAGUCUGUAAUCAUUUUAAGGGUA

Variants of: B1
Assay: self-cleavage, relative activity (ratio to wild type); higher = more cleavage; in vitro, sequencing; the parent is a self-cleaving ribozyme
# key: entry, value: self-cleavage
Lab note: jot the number down without any unit.

The following variants have reported results that may help.
GUUAACGGUCAUAGGCCAUGGAAAUUAGGAGCACCAUUUCGCUGCCAGUGAAGAAAUGAACAGAGAAAAUCUGGGCCAGGCAGGCAUCAAAAGAAAUAGUCUUGCGCUCAACCAGAAAGUCUGUAAUCAUUUUAAGGGUA [C25U A63G] | 0.37
GUUAACGGUCAUAGGCCAUGGAAACUAGGAGCACCAUUUCGCUGCCAGUGAAGAAAUGAACAAAGAAAAUCUGGGCCAGGCAGGCAUCAAAAGAAAUAGUCUUGCGCUCAGCCAGAUAGUCUGUAAUCAUUUUAAGGGUA [A111G A117U] | 0
GUUAACGGUUAUAGGCCAUGGAAACUAGGAGCACCAUUUCGCUGCCAGUGAAGAAAUGAACAAAGAAAAUCUGGGCCAGGCAGGCAUCAAAAGAAAUAGUCUUGCGCUCAACCAGAAAGUCUGAAAUCAUUUUAAGGGUA [C10U U124A] | 0.36
GUUAACGGUCAUAGGCCAUGGAAACUAGGAGCACCAUUUCGCUGCCAGUGAAGAAAUGAACAAAGAAAAUCUGGGCCAGGCAGGCAUCAAAAGAAAUAGUCUUGAGCCCAACCAGAAAGUCUGUAAUCAUUUUAAGGGUA [C105A U108C] | 0.01
GUUAACGGUCAUAGGCCAUGGAAACUAGGAGCACCAUUUCACUGCCAGUGAAGGAAUGAACAAAGAAAAUCUGGGCCAGGCAGGCAUCAAAAGAAAUAGUCUUGCGCUCAACCAGAAAGUCUGUAAUCAUUUUAAGGGUA [G41A A54G] | 1.09

### Prompt Which self-cleavage is reported for this variant? GUUAACGGUCAUAGGCCAUGGAAACUAGGAGCACCAUUACGCUGCCAGUGAAGAAAUGAGCAAAGAAAAUCUGGGCCAGGCAGGCAUCAAAAGAAAUAGUCUUGCGCUCAACCAGAAAGUCUGUAAUCAUUUUAAGGGUA [U39A A60G]
### Response 0.99

### Prompt Which self-cleavage is reported for this variant? GUUAAUGGUCAUAGGCCAUGGAAACUAGGAGCACCAUUUCGCUGCCAGUGAAGAAAUGAACAAAGAAAAUCUGGGCCAGGCAGGCAUCAAAAGAAAUAGUCUUGCGCUCAACCAGAAAGUCUGUAAUCAUUUUAGGGGUA [C6U A135G]
### Response 2.17

### Prompt Which self-cleavage is reported for this variant? GUUAACGGUCAUAGGCCAUGGAAACUAGGAGCACCGUUUCGCUGCCAGUGAAGAAGUGAACAAAGAAAAUCUGGGCCAGGCAGGCAUCAAAAGAAAUAGUCUUGCGCUCAACCAGAAAGUCUGUAAUCAUUUUAAGGGUA [A36G A56G]
### Response 1.3

### Prompt Which self-cleavage is reported for this variant? GUUAACGGUCAUAGGCCAAGGAAACUAGGAGCACCAUUUCGCUGCCAGUGAAGAAAUGAACAAAGAAAAUCUGGGCCAGGCAGGCAUCAAAAGAAAUAGUCUUGCGCUCAACCAGAAGGUCUGUAAUCAUUUUAAGGGUA [U19A A118G]
### Response 0.88

### Prompt Which self-cleavage is reported for this variant? GUUAACGGUCAUAGGCCUUGGAAACUAGGAGCACCAUUUCGCUGCCAGUGAAGAAAUGAACAAAGAAAAACUGGGCCAGGCAGGCAUCAAAAGAAAUAGUCUUGCGCUCAACCAGAAAGUCUGUAAUCAUUUUAAGGGUA [A18U U70A]
### Response 1.35

### Prompt Which self-cleavage is reported for this variant? GUUAACGGUCAUAGGCCAUGGAAACUAGGAGCAACAUUUCGCUGCCAGUGAAGAAAUGAACAAAGAAAAUCUGGGCCAGGCAGGCAUCGAAAGAAAUAGUCUUGCGCUCAACCAGAAAGUCUGUAAUCAUUUUAAGGGUA [C34A A89G]
### Response 1.66

### Prompt Which self-cleavage is reported for this variant? GUUAACGGUCAUAGGCCAUGGAAACUAGGAGCACCAUUUCGCUGCCAGUGAAGAAAUGUACAAAGAAAAUCUGGGCCAGGCAGGCAUCAAAAGAAAUAGUCUUGCGCUCAACCAGAUAGUCUGUAAUCAUUUUAAGGGUA [A59U A117U]
### Response 0.89

### Prompt Which self-cleavage is reported for this variant? GUUAACGGUCAUAGGCCAUGGAAACUAGGAGCACCAUUUCGCUGCCAGCGAAGAAAAGAACAAAGAAAAUCUGGGCCAGGCAGGCAUCAAAAGAAAUAGUCUUGCGCUCAACCAGAAAGUCUGUAAUCAUUUUAAGGGUA [U49C U57A]
### Response 1.03
